Molecular target: MAGL (Mus musculus)
Assay: biochemical
Conditions: mouse; in vitro competitive ABPP; read-out: Mouse (IC50 value, nM) MAGL
Task for the reader: assign each of the following molecules its reported IC50.

Cc1cccc(CN2CC3CN(C(=O)OC(C(F)(F)F)C(F)(F)F)CC3C2)c1N1CCN(C)CC1 (centres unmarked) | 100 to 1000 nM
O=C(OC(C(F)(F)F)C(F)(F)F)N1CC2CN(Cc3cc(CN4CCOCC4)ccc3OC(F)(F)F)CC2C1 (centres unmarked) | < 100 nM
CCn1cc(CN2CC3CN(C(=O)OC(C(F)(F)F)C(F)(F)F)CC3C2)c(-c2cccnc2)n1 (centres unmarked) | < 100 nM
O=C(OC(C(F)(F)F)C(F)(F)F)N1CC2CN(Cc3ccc(N4CCCC4)cc3C(F)F)CC2C1 (centres unmarked) | 100 to 1000 nM

# ---- query molecule ----
Look up IC50 for this molecule: CC(C)(C)c1cc(CN2CC3CN(C(=O)OC(C(F)(F)F)C(F)(F)F)CC3C2)n(C2CCOCC2)n1 (centres unmarked)
100 to 1000 nM

====

Target: MAGL (Mus musculus, UniProt O35678)
Sequence (O35678 1-303): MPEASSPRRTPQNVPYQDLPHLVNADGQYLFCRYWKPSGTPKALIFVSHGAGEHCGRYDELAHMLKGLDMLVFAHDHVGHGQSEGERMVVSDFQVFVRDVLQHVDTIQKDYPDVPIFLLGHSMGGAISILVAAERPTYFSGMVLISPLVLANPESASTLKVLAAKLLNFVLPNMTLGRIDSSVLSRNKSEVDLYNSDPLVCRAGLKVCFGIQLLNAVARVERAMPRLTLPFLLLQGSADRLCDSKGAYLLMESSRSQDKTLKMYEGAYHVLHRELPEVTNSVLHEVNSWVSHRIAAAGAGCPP
Experiment: biochemical
Conditions: mouse; in vitro competitive ABPP; read-out: Mouse (IC50 value, nM) MAGL
Task for the reader: assign each of the following compounds its reported IC50.

Cc1ccc(CN2CC3CN(C(=O)OC(C(F)(F)F)C(F)(F)F)CC3C2)c(-c2ccccc2)c1 (stereo not drawn) [Example 207] | 100 to 1000 nM
Cc1c(CN2CC3CN(C(=O)OC(C(F)(F)F)C(F)(F)F)CC3C2)cccc1N1CCC(NS(C)(=O)=O)CC1 (stereo not drawn) [Example 149] | < 100 nM
CCn1cc(CN2CC3CN(C(=O)OC(C(F)(F)F)C(F)(F)F)CC3C2)c(C(=O)NC2CC2)n1 (stereo not drawn) [Example 77] | 100 to 1000 nM
Cc1c(CN2CC3CN(C(=O)OC(C(F)(F)F)C(F)(F)F)CC3C2)cccc1C(=O)N1CCCC1 (stereo not drawn) [Example 186] | < 100 nM
O=C(OC(C(F)(F)F)C(F)(F)F)N1CC2CN(Cc3ccc(N4CCOCC4)cc3F)CC2C1 (stereo not drawn) [Example 1] | < 100 nM

# ---- query compound ----
Quick check: IC50 on MAGL (Mus musculus, UniProt O35678), item O=C(OC(C(F)(F)F)C(F)(F)F)N1CC2CN(Cc3ccc(N4CCOCC4)cc3C(F)F)CC2C1 (stereo not drawn) [Example 200] ?
100 to 1000 nM

====

Molecular target: FAAH (Mus musculus, UniProt O08914)
Sequence (O08914 whole entry): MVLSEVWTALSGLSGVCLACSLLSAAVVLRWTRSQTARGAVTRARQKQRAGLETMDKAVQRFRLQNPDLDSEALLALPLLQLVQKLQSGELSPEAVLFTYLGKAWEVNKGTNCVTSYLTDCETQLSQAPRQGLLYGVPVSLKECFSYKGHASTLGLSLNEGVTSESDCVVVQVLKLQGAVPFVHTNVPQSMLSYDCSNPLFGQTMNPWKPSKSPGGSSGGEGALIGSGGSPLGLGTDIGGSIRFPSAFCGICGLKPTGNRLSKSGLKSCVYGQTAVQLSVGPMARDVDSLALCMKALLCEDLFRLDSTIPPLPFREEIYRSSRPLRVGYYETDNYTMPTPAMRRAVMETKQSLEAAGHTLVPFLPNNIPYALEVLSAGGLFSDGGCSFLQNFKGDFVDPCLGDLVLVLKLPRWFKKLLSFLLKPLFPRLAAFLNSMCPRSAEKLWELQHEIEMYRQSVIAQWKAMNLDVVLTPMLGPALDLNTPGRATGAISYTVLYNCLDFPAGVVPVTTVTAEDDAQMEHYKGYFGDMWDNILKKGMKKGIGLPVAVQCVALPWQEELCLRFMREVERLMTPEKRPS
Assay: biochemical
Conditions: in vitro competitive ABPP
Task for the reader: assign each of the following compounds its reported IC50.

Below are some compounds; for each one, tell me its IC50.
1. O=C(OC(C(F)(F)F)C(F)(F)F)N1CC2CN(Cc3cccc(C(F)(F)F)c3N3CCOCC3)CC2C1 (centres unmarked)
2. CC(=O)N1CCN(c2cc(C(C)C)ccc2CN2CC3CN(C(=O)OC(C(F)(F)F)C(F)(F)F)CC3C2)CC1 (centres unmarked)
3. Cc1cccc(CN2CC3CN(C(=O)OC(C(F)(F)F)C(F)(F)F)CC3C2)c1N1CCCCC1 (centres unmarked)
4. O=C(OC(C(F)(F)F)C(F)(F)F)N1CC2CN(Cc3ccc(C(F)F)cc3N3CCCC3)CC2C1 (centres unmarked)
5. CC1COCCN1c1cc(F)ccc1CN1CC2CN(C(=O)OC(C(F)(F)F)C(F)(F)F)CC2C1 (centres unmarked)

1. 1000 to 10000 nM
2. > 10000 nM
3. > 10000 nM
4. 1000 to 10000 nM
5. 1000 to 10000 nM

Below are some compounds; for each one, tell me its IC50.
1. O=C(OC(C(F)(F)F)C(F)(F)F)N1CC2CN(Cc3ccc(Cl)cc3N3CCC4(CCNC4=O)CC3)CC2C1 (centres unmarked)
2. CCn1cc(CN2CC3CN(C(=O)OC(C(F)(F)F)C(F)(F)F)CC3C2)c(C(=O)NCc2ccccc2)n1 (centres unmarked)
3. CC(=O)N1CCC(n2nc(C)cc2CN2CC3CN(C(=O)OC(C(F)(F)F)C(F)(F)F)CC3C2)CC1 (centres unmarked)
4. CCn1cc(CN2CC3CN(C(=O)OC(C(F)(F)F)C(F)(F)F)CC3C2)c(-c2cccc(N3CCC3)c2)n1 (centres unmarked)
5. Cc1c(CN2CC3CN(C(=O)OC(C(F)(F)F)C(F)(F)F)CC3C2)cccc1N1CCN(S(C)(=O)=O)CC1 (centres unmarked)
6. CCn1cc(CN2CC3CN(C(=O)OC(C(F)(F)F)C(F)(F)F)CC3C2)c(C(=O)NC2CC2)n1 (centres unmarked)
7. Cc1c(CN2CC3CN(C(=O)OC(C(F)(F)F)C(F)(F)F)CC3C2)cccc1N1CCOCC1 (centres unmarked)

["> 10000 nM", "> 10000 nM", "> 10000 nM", "1000 to 10000 nM", "1000 to 10000 nM", "> 10000 nM", "1000 to 10000 nM"]

Below are some compounds; for each one, tell me its IC50.
1. CC(=O)N1CCN(c2cc(F)ccc2CN2CC3CN(C(=O)OC(C(F)(F)F)C(F)(F)F)CC3C2)CC1 (centres unmarked)
2. CCn1cc(CN2CC3CN(C(=O)OC(C(F)(F)F)C(F)(F)F)CC3C2)c(-c2cccnc2)n1 (centres unmarked)

1000 to 10000 nM
1000 to 10000 nM

Below are some compounds; for each one, tell me its IC50.
1. O=C(OC(C(F)(F)F)C(F)(F)F)N1CC2CN(Cc3ccc(C(F)F)cc3N3CCOCC3)CC2C1 (centres unmarked)
2. O=C(OC(C(F)(F)F)C(F)(F)F)N1CC2CN(Cc3cccc(N4CCC5(CCOC5)C4)c3C(F)(F)F)CC2C1 (centres unmarked)
3. Cc1cccc(CN2CC3CN(C(=O)OC(C(F)(F)F)C(F)(F)F)CC3C2)c1N1CCN(C)CC1 (centres unmarked)

1: 1000 to 10000 nM; 2: 1000 to 10000 nM; 3: > 10000 nM

====

Molecular target: MAGL (Mus musculus, UniProt O35678)
Assay: In vitro competitive activity-based protein profiling (Table 2, % inhibition at 1 μM)
Type: biochemical
Details: read-out: % Inhibition at 1 μM MAGL
Task for the reader: assign each of the following compounds its reported inhibition at 1 µM.

Known inhibition at 1 µM results, listed for orientation:
CCn1cc(CN2CC3CN(C(=O)OC(C(F)(F)F)C(F)(F)F)CC3C2)c(-c2ccc(N3CCOCC3)cc2)n1 (stereo not drawn) | > 75%
CC(=O)N1CCC2(CCN(c3ccccc3CN3CC4CN(C(=O)OC(C(F)(F)F)C(F)(F)F)CC4C3)C2)C1 (stereo not drawn) | > 75%
Cc1c(CN2CC3CN(C(=O)OC(C(F)(F)F)C(F)(F)F)CC3C2)cccc1N1CCC2(CCOC2)C1 (stereo not drawn) | > 75%
O=C(OC(C(F)(F)F)C(F)(F)F)N1CC2CN(Cc3ccc(Cl)cc3N3CCn4ccnc4C3)CC2C1 (stereo not drawn) | > 75%
O=C(OC(C(F)(F)F)C(F)(F)F)N1CC2CN(Cc3ccc(C(F)(F)F)cc3N3CC4COCC4C3)CC2C1 (stereo not drawn) | > 75%

Below are some compounds; for each one, tell me its inhibition at 1 µM.
1. O=C(ON1C(=O)CCC1=O)N1CC2CN(Cc3cccc(-c4ccccc4)c3)CC2C1 (stereo not drawn)
2. O=C(ON1C(=O)CCC1=O)N1CC2CN(Cc3ccc(Cl)cc3N3CC4CCC(C3)O4)CC2C1 (stereo not drawn)
3. CC(C)c1cc(CN2CC3CN(C(=O)OC(C(F)(F)F)C(F)(F)F)CC3C2)n(C2CCCCC2)n1 (stereo not drawn)
4. Cc1cccc(-c2cc(CN3CC4CN(C(=O)ON5C(=O)CCC5=O)CC4C3)n(C)n2)c1 (stereo not drawn)

> 75%
25 to 75%
> 75%
25 to 75%

====

Biological target: MAGL (Mus musculus)
Sequence (O35678 1-303): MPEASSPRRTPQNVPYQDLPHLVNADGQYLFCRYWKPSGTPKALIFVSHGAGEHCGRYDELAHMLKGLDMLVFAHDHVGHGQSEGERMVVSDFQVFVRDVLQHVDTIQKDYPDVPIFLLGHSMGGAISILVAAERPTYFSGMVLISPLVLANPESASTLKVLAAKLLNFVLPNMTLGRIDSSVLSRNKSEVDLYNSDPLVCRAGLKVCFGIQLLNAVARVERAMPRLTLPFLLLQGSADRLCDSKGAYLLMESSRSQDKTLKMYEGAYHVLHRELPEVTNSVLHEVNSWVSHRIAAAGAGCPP
Assay: In vitro competitive activity-based protein profiling (Table 2, % inhibition at 1 μM)
Assay type: biochemical
Details: read-out: % Inhibition at 1 μM MAGL
assay-metric: inhibition at 1 µM

Known inhibition at 1 µM results, listed for orientation:
O=C(OC(C(F)(F)F)C(F)(F)F)N1CC2CN(Cc3ccc(Cl)cc3N3CCC4(CCOCC4)C3)CC2C1 (stereo not shown) | > 75%
O=C(ON1C(=O)CCC1=O)N1CC2CN(Cc3ccc(Cl)cc3N3CCCC3)CC2C1 (stereo not shown) | 25 to 75%
O=C(OC(C(F)(F)F)C(F)(F)F)N1CC2CN(Cc3cccc(Cl)c3N3CCC4(CCOC4)C3)CC2C1 (stereo not shown) | > 75%
O=C(OC(C(F)(F)F)C(F)(F)F)N1CC2CN(Cc3ccc(Cl)cc3N3CCn4ncnc4C3)CC2C1 (stereo not shown) | > 75%
CC(=O)N1CCN(c2cc(Cl)ccc2CN2CC3CN(C(=O)OC(C(F)(F)F)C(F)(F)F)CC3C2)CC1 (stereo not shown) | > 75%

Below are some compounds; for each one, tell me its inhibition at 1 µM.
1. O=C(OC(C(F)(F)F)C(F)(F)F)N1CC2CN(Cc3cccc(N4CCOCC4)c3Cl)CC2C1 (stereo not shown)
2. O=C(OC(C(F)(F)F)C(F)(F)F)N1CC2CN(Cc3ccc(Cl)cc3N3CCOC4CCCC43)CC2C1 (stereo not shown)

1. > 75%
2. > 75%

Below are some compounds; for each one, tell me its inhibition at 1 µM.
1. CCn1cc(CN2CC3CN(C(=O)OC(C(F)(F)F)C(F)(F)F)CC3C2)c(-c2ccc(N3CCCC3)cc2)n1 (stereo not shown)
2. O=C(OC(C(F)(F)F)C(F)(F)F)N1CC2CN(Cc3ccc(Cl)cc3N3CCN4CCC[C@@H]4C3)CC2C1 (stereo partly shown)
3. O=C(OC(C(F)(F)F)C(F)(F)F)N1CC2CN(Cc3ccc(N4CCOCC4)cc3C(F)F)CC2C1 (stereo not shown)
4. O=C(OC(C(F)(F)F)C(F)(F)F)N1CC2CN(Cc3ccc(N4CCOCC4)cc3OC(F)(F)F)CC2C1 (stereo not shown)
5. CCN1CCN(c2cccc(CN3CC4CN(C(=O)OC(C(F)(F)F)C(F)(F)F)CC4C3)c2C)CC1 (stereo not shown)

> 75%
> 75%
> 75%
> 75%
> 75%
